What follows is a collection of pKi values obtained with Retinoic acid receptor RXR-alpha (Homo sapiens, UniProt P19793).
Reminder that pKi means the negative base-10 logarithm of the concentration expressed in mol/L.

Consider the reported pKi for these compounds:
* C=C1C[C@@H](/C=C/C(C)=C/C(=O)O)[C@@H](c2ccc3c(c2)C(C)(C)CCC3(C)C)C1 | 7.18
* C=C1C[C@H](c2ccc3c(c2)C(C)(C)CCC3(C)C)[C@@H](/C=C/C(C)=C/C(=O)O)C1 | 7.42
* CC(/C=C/[C@]12CCC[C@@]1(c1ccc3c(c1)C(C)(C)CCC3(C)C)C2)=C\C(=O)O | 8.52

Now for the compound whose pKi we want.
*Q* // lookup pKi | system=Retinoic acid receptor RXR-alpha (Homo sapiens, UniProt P19793) | key= `CC(/C=C/C1=C(c2ccc3c(c2)C(C)(C)CCC3(C)C)CCC1)=C\C(=O)O`
*A* 7.70

---

Measurement Target: Retinoic acid receptor RXR-alpha (Homo sapiens)
Sequence (P19793 whole entry): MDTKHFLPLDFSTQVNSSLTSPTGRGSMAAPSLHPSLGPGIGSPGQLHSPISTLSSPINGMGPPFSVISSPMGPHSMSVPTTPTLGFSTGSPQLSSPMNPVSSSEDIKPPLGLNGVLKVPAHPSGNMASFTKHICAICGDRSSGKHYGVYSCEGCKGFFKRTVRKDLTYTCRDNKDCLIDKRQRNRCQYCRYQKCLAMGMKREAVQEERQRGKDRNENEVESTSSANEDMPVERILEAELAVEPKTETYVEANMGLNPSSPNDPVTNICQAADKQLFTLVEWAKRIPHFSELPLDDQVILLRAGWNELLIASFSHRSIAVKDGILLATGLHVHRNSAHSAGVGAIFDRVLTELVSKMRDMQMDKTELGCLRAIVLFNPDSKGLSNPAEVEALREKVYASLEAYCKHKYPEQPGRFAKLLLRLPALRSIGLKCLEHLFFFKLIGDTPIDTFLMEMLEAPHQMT
Test Protocol: Effective potency in transcriptional activation assay in CV-1 cells expressing Retinoid X receptor RXR alpha
pEC50: −log10 of the molar value.
Classification field: enter 1 for pEC50 values not below 7, 0 for values below it.

Field: example entries. Status: answers known.
- CC(/C=C/[C@@H]1CCC[C@@H]1c1ccc2c(c1)C(C)(C)CCC2(C)C)=C\C(=O)O: 1
- C=C1C[C@H](c2ccc3c(c2)C(C)(C)CCC3(C)C)[C@@H](/C=C/C(C)=C/C(=O)O)C1: 0
- C=C1C[C@@H](/C=C/C(C)=C/C(=O)O)[C@@H](c2ccc3c(c2)C(C)(C)CCC3(C)C)C1: 0
- CC(/C=C/[C@H]1CCC[C@@H]1c1ccc2c(c1)C(C)(C)CCC2(C)C)=C\C(=O)O: 1
- CC(/C=C/[C@]12CCC[C@@]1(c1ccc3c(c1)C(C)(C)CCC3(C)C)C2)=C\C(=O)O: 1

*Q* Record `CC(/C=C/C1=C(c2ccc3c(c2)C(C)(C)CCC3(C)C)CCC1)=C\C(=O)O` ; criterion: pEC50 no lower than 7. Met?
*A* 1

*Q* Record CC(/C=C/[C@@]1(C)CCCC1c1ccc2c(c1)C(C)(C)CCC2(C)C)=C\C(=O)O (single isomer, unassigned) ; criterion: pEC50 no lower than 7. Met?
*A* 1

---

Target sequence: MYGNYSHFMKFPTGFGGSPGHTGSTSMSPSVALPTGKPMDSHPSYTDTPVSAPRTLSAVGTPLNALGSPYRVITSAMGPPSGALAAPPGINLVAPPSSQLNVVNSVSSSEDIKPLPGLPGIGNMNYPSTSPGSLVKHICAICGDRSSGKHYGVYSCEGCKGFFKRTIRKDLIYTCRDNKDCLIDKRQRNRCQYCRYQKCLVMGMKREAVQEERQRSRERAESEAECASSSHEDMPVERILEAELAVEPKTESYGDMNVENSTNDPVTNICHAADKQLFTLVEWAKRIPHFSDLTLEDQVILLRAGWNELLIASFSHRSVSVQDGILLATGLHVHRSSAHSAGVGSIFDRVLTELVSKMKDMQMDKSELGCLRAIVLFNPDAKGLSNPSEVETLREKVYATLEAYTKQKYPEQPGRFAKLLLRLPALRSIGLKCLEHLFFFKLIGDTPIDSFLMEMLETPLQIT
Each entry below carries its reported Ki.
Note to self: number, then unit, no commentary.

Consider the reported Ki for these compounds:
* CC(/C=C/[C@H]1CCC[C@@H]1c1ccc2c(c1)C(C)(C)CCC2(C)C)=C\C(=O)O | 5 nM
* CC(/C=C/[C@@]1(C)CCCC1c1ccc2c(c1)C(C)(C)CCC2(C)C)=C\C(=O)O (single isomer, unassigned) | 7 nM
* C=C1C[C@H](c2ccc3c(c2)C(C)(C)CCC3(C)C)[C@@H](/C=C/C(C)=C/C(=O)O)C1 | 54 nM

Now for the compound whose Ki we want.
*Q* Entry `C=C1C[C@@H](/C=C/C(C)=C/C(=O)O)[C@@H](c2ccc3c(c2)C(C)(C)CCC3(C)C)C1` : reported Ki = ?
*A* 161 nM

---

Measurement Target: Retinoic acid receptor RXR-beta (Mus musculus)
Sequence (P28704 whole entry): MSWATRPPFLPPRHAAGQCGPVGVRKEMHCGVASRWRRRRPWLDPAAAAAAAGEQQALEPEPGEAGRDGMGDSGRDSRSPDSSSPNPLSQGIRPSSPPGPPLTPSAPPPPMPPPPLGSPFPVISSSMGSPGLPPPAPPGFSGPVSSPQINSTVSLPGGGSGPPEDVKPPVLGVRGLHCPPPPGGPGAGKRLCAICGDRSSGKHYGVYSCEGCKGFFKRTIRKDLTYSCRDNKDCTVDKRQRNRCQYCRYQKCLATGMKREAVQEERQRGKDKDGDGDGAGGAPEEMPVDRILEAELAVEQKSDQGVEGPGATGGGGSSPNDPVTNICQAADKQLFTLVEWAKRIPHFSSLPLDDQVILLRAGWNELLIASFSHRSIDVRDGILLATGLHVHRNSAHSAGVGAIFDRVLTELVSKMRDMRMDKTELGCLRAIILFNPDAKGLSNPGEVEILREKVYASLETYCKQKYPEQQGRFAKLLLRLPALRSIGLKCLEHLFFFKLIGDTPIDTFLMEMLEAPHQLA
Test Protocol: Effective potency in transcriptional activation assay in CV-1 cells expressing Retinoid X receptor RXR beta
Test Readout: log10 EC50 (log10 of the value in µM)
// units: µM (pre-log); metric: EC50; scale: log10

Consider the reported log10 EC50 for these compounds:
- CC(/C=C/C1=C(c2ccc3c(c2)C(C)(C)CCC3(C)C)CCC1)=C\C(=O)O: -1.38
- C=C1C[C@@H](/C=C/C(C)=C/C(=O)O)[C@@H](c2ccc3c(c2)C(C)(C)CCC3(C)C)C1: -0.66
- CC(/C=C/[C@]12CCC[C@@]1(c1ccc3c(c1)C(C)(C)CCC3(C)C)C2)=C\C(=O)O: -2.52
- CC(/C=C/C1=C(c2cc3c(cc2C)C(C)(C)CCC3(C)C)CCC1)=C\C(=O)O: -0.72

Now for the compound whose log10 EC50 we want.
*Q* Entry `C=C1C[C@H](c2ccc3c(c2)C(C)(C)CCC3(C)C)[C@@H](/C=C/C(C)=C/C(=O)O)C1` : reported log10 EC50 = ?
*A* -0.65

---

Measurement Target: Retinoic acid receptor beta (Homo sapiens)
Sequence (P10826 whole entry): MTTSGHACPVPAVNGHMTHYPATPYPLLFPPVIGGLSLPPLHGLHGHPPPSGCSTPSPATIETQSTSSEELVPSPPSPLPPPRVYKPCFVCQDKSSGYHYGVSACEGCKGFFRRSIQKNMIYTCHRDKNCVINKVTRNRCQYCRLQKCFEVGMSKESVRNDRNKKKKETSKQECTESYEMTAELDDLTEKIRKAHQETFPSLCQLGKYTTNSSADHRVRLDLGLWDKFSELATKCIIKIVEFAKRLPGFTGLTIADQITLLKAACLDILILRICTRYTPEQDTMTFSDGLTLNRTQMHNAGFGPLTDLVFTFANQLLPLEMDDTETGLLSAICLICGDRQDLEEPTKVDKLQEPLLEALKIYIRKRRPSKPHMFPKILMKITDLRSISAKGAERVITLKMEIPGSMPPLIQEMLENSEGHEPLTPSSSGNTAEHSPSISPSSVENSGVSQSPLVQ
pKi: −log10 of the molar value.
Test Readout: pKi

Consider the reported pKi for these molecules:
• CC(/C=C/[C@]1(C)CCCC1c1ccc2c(c1)C(C)(C)CCC2(C)C)=C\C(=O)O (single isomer, unassigned) = < 6.00
• CC(/C=C/[C@]12CCC[C@@]1(c1ccc3c(c1)C(C)(C)CCC3(C)C)C2)=C\C(=O)O = < 6.00
• CC(/C=C/[C@@H]1CCC[C@@H]1c1ccc2c(c1)C(C)(C)CCC2(C)C)=C\C(=O)O = < 6.00
• CC(/C=C/C1=C(c2ccc3c(c2)C(C)(C)CCC3(C)C)CCC1)=C\C(=O)O = < 6.00

Now for the molecule whose pKi we want.
*Q* // lookup pKi | system=Retinoic acid receptor beta (Homo sapiens) | key= `C=C1C[C@@H](/C=C/C(C)=C/C(=O)O)[C@@H](c2ccc3c(c2)C(C)(C)CCC3(C)C)C1`
*A* < 6.00

---

What follows is a collection of pKi values obtained with UniProt P28704.
Reminder that pKi means the negative base-10 logarithm of the concentration expressed in mol/L.

Consider the reported pKi for these compounds:
- CC(/C=C/[C@]12CCC[C@@]1(c1ccc3c(c1)C(C)(C)CCC3(C)C)C2)=C\C(=O)O: 8.00
- C=C1C[C@@H](/C=C/C(C)=C/C(=O)O)[C@@H](c2ccc3c(c2)C(C)(C)CCC3(C)C)C1: 6.25

Now for the compound whose pKi we want.
*Q* Entry CC(/C=C/[C@]1(C)CCCC1c1ccc2c(c1)C(C)(C)CCC2(C)C)=C\C(=O)O (single isomer, unassigned) : reported pKi = ?
*A* 8.00

---

Measurement Target: Retinoic acid receptor RXR-gamma (Mus musculus)
Test Protocol: Percent efficacy for Retinoid X receptor RXR gamma in CV-1 cell transcriptional activation assay
Type: cell-based
Test Readout: Efficacy (%)
State just the number; it will be interpreted in %.

Consider the reported Efficacy for these compounds:
* CC(/C=C/[C@]12CCC[C@@]1(c1ccc3c(c1)C(C)(C)CCC3(C)C)C2)=C\C(=O)O | 77
* CC(/C=C/[C@H]1CCC[C@@H]1c1ccc2c(c1)C(C)(C)CCC2(C)C)=C\C(=O)O | 70
* C=C1C[C@@H](/C=C/C(C)=C/C(=O)O)[C@@H](c2ccc3c(c2)C(C)(C)CCC3(C)C)C1 | 90
* CC(/C=C/C1=C(c2cc3c(cc2C)C(C)(C)CCC3(C)C)CCC1)=C\C(=O)O | 42
* CC(/C=C/[C@@]1(C)CCCC1c1ccc2c(c1)C(C)(C)CCC2(C)C)=C\C(=O)O (single isomer, unassigned) | 72
* CC(/C=C/[C@]1(C)CCCC1c1ccc2c(c1)C(C)(C)CCC2(C)C)=C\C(=O)O (single isomer, unassigned) | 38

*Q* Entry `C=C1C[C@H](c2ccc3c(c2)C(C)(C)CCC3(C)C)[C@@H](/C=C/C(C)=C/C(=O)O)C1` : reported Efficacy = ?
*A* 99

*Q* Entry `CC(/C=C/[C@@H]1CCC[C@@H]1c1ccc2c(c1)C(C)(C)CCC2(C)C)=C\C(=O)O` : reported Efficacy = ?
*A* 58

*Q* Entry `C=C(c1ccc(C(=O)O)cc1)c1cc2c(cc1C)C(C)(C)CCC2(C)C` : reported Efficacy = ?
*A* 85

*Q* Entry `CC(/C=C/C1=C(c2ccc3c(c2)C(C)(C)CCC3(C)C)CCC1)=C\C(=O)O` : reported Efficacy = ?
*A* 62
